# measurement-target: tetanus neurotoxin (TeNT), authentic tetanus holotoxin (Clostridium tetani, UniProt P04958 2-1315)
# Sequence (P04958 2-457 limits assumed, chain 1 of 2): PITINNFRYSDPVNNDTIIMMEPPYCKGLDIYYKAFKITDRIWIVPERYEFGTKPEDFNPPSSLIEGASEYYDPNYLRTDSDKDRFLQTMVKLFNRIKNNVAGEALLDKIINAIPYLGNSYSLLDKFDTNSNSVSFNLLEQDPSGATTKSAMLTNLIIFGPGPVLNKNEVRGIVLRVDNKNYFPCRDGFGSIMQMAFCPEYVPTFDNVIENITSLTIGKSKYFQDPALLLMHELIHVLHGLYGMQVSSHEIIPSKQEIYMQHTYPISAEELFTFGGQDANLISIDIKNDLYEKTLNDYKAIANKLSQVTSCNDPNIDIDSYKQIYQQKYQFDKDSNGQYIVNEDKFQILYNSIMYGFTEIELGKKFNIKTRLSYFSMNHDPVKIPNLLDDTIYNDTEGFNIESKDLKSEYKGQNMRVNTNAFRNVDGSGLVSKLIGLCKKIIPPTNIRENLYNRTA
# Sequence (P04958 458-1315 limits assumed, chain 2 of 2): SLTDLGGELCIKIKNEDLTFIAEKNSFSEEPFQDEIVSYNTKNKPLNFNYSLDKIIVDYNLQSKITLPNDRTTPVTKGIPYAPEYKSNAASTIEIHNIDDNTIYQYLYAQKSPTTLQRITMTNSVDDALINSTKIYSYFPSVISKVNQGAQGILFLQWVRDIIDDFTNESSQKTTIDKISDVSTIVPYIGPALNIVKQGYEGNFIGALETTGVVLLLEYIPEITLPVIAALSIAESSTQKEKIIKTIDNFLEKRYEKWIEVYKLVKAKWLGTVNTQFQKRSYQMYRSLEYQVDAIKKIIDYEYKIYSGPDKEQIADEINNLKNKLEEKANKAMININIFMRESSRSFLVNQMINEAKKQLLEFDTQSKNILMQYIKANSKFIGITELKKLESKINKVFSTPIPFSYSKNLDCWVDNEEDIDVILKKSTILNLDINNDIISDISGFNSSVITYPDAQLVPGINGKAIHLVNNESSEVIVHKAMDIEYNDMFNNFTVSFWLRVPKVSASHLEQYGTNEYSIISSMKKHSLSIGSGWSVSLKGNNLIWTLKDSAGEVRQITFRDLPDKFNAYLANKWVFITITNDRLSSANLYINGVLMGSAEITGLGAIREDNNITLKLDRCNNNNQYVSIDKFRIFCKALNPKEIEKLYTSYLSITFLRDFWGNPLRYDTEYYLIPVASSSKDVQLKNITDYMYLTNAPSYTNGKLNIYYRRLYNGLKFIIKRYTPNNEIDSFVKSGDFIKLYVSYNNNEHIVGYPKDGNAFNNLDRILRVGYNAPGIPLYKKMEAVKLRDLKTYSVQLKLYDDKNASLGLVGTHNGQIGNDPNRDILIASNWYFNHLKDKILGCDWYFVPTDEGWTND
# method-summary: BLI (Octet Red96): biotinylated TeNT on SA sensor, SDA as analyte

binder	koff
SVT06-GS2-SVG13M4-H6 (bispecific antibody) QVQLQESGGGSVQAGGSLRLSCTASELSYDDYTIAWFRRAAGEGRVEDGEGVASITKSYDRAYDNKINYGHSVKGRFTISRDNAKNTVYLQMTDLLPSDTAVYYCALDITPPGGVGASLTEGFLFDYWGQGTQVTVSSGGGGSGGGSEVQLVESGGGLVQPGGSLRLSCEASGFTFDDYGMSWVRQAPGKGLEWVSSLTPNGGSTYYADSVKGRFTISRDNAKNTLYLQMNSLKPEDTALYYCAKNSYYGAMDYWGQGTQVTVSSHHHHHH	8.24e-05 s⁻¹
SVT03L (VHH) VHH: QVQLQQSGGGSVQTGDSLTLSCTASGGSLNSYFVGWFRQSGGKEREFVSVIARTGRSTSYADSVKGRFTISRDNAANTVFLTMNNLRPDDTAIYYCAAVGRPGVLHLTQSYDYWGQGTQVTVSS	< 1e-07 s⁻¹
SVT15-3FW4M-GS2-SVG13M4-H6 (bispecific antibody) QVQLQESGGGLVQTGGSLRLSCRASGRAFANYHFGWFRQAPGKDREFVASISWKGGSTYYANFALGRFTSSVDRAESSVYLQMSGLTPEDTATYYCAAHDGGDWNYHTGMDYWGQGTQVTVSSGGGGSGGGSEVQLVESGGGLVQPGGSLRLSCEASGFTFDDYGMSWVRQAPGKGLEWVSSLTPNGGSTYYADSVKGRFTISRDNAKNTLYLQMNSLKPEDTALYYCAKNSYYGAMDYWGQGTQVTVSSHHHHHH	6.77e-06 s⁻¹
SVT02-GS2-SVG13M4-H6 (bispecific antibody) QVQLQQSGGGSVQAGGSLRLSCVGPQRTFSTYGMGWFRQAPGKEREFVAGINYKGDTTYYADSVKGRFTISRDNAKNTLYLQMDSLKPEDRAVYQCARKGGLGGDYRDAGQYRYWGQGTQVTVSSGGGGSGGGSEVQLVESGGGLVQPGGSLRLSCEASGFTFDDYGMSWVRQAPGKGLEWVSSLTPNGGSTYYADSVKGRFTISRDNAKNTLYLQMNSLKPEDTALYYCAKNSYYGAMDYWGQGTQVTVSSHHHHHH	0.000121 s⁻¹
SVT06-GS2-SVA12M2-H6 (bispecific antibody) QVQLQESGGGSVQAGGSLRLSCTASELSYDDYTIAWFRRAAGEGRVEDGEGVASITKSYDRAYDNKINYGHSVKGRFTISRDNAKNTVYLQMTDLLPSDTAVYYCALDITPPGGVGASLTEGFLFDYWGQGTQVTVSSGGGGSGGGSEVQLVESGGGLVQAGGSLRLSCAASGRTFSYYPMAWFRQAPGQEREFVAAIIGADTTYYADSLKGRFTISRDNAKNMVYLQMNSLKPEDTAVYYCAARNTYWSDVYYREGQYTNWGQGTQVTVSSHHHHHH	8.9e-05 s⁻¹
